Quick reference for Kb among some molecules
# tested_target: α-1A adrenoceptor (rat vas deferens) (Rattus norvegicus)
# Construct: PE-induced contraction of rat vas deferens; from tissue; host or cells: rat vas deferens
# Sequence (P43140 whole entry): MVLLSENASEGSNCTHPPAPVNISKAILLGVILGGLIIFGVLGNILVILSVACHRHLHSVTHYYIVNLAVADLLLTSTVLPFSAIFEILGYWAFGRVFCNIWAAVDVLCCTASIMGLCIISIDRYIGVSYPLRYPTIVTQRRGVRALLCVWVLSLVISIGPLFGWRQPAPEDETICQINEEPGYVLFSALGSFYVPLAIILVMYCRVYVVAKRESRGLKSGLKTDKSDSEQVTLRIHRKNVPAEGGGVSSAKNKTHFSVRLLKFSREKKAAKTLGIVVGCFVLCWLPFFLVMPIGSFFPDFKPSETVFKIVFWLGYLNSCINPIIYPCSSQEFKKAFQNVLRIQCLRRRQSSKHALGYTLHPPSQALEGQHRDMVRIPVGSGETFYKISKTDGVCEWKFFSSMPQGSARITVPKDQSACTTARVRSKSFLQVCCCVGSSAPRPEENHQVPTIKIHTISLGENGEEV
# method: Functional antagonism: phenylephrine (PE)-induced contraction of rat vas deferens
# Assay type: cell-based
# experimental_conditions: vs phenylephrine; Schild plot; read-out: pA2 Rat Vas Deferens [α-1A] (converted)
Structures can show the parent of a compound that is named as a salt.
measured_parameter: Kb (nM)

| molecule | measured_parameter | unit | recorded_result |
| --- | --- | --- | --- |
| COc1cccc2c1CC[C@@H]1CN(CCn3c(=O)[nH]c4c(sc5ncccc54)c3=O)C[C@H]21 [Example 75, hydrochloride] | Kb | nM | 5.89 |
| COc1cccc2c1CC[C@H]1CN(CCn3c(=O)[nH]c4c(sc5ccc(O)nc54)c3=O)C[C@@H]21 [Example 107, dihydrochloride] | Kb | nM | 20 |
| COc1cccc2c1CC[C@H]1CN(CCn3c(=O)[nH]c4c(sc5ccc(Cl)nc54)c3=O)C[C@@H]21 [Example 62, dihydrochloride] | Kb | nM | 0.724 |
| COc1cccc2c1CC[C@H]1CN(CCn3c(=O)[nH]c4c(sc5ccccc54)c3=O)C[C@@H]21 (relative stereo) [Example 1, hydrochloride] | Kb | nM | 4.27 |
| COc1cccc2c1CC[C@H]1CN(CCn3c(=O)[nH]c4c(sc5ncccc54)c3=O)C[C@@H]21 [Example 31, hydrochloride] | Kb | nM | 2.24 |
| COc1cccc2c1CC[C@H]1CN(CCn3c(=O)[nH]c4c(sc5cnccc54)c3=O)C[C@@H]21 [Example 36, dihydrochloride] | Kb | nM | 2.51 |
| COc1cccc2c1CC[C@H]1CN(CCn3c(=O)[nH]c4c(sc5nc(Cl)cnc54)c3=O)C[C@@H]21 [Example 88, hydrochloride] | Kb | nM | 1.1 |
| COc1cccc2c1CC[C@H]1CN(CCn3c(=O)[nH]c4c(oc5ncccc54)c3=O)C[C@@H]21 [Example 76, hydrochloride] | Kb | nM | 25.1 |
| COc1cccc2c1[C@@H]1CN(CCn3c(=O)[nH]c4c(sc5ccccc54)c3=O)C[C@@H]1CC2 [Example 16, hydrochloride] | Kb | nM | 10.5 |
| COc1cccc2c1CC[C@H]1CN(CCn3c(=O)[nH]c4c(sc5ncccc54)c3=O)C[C@@H]21 (relative stereo) [Example 23, hydrochloride] | Kb | nM | 5.13 |
| COc1cccc2c1CC[C@H]1CN(CCn3c(=O)c4sc5ccccc5c4n(C)c3=O)C[C@@H]21 (relative stereo) [Example 11, hydrochloride] | Kb | nM | 2.82 |
| COc1cccc2c1CC[C@H]1CN(CCn3c(=O)[nH]c4c(sc5ccc(C(=O)N6CCOCC6)cc54)c3=O)C[C@@H]21 [Example 58, hydrochloride] | Kb | nM | 4.37 |
| COc1cccc2c1CC[C@@H]1CN(CCn3c(=O)[nH]c4c(sc5ccccc54)c3=O)C[C@H]21 [Example 8, hydrochloride] | Kb | nM | 17.4 |
| COc1cccc2c1CC[C@H]1CN(CCn3c(=O)[nH]c4c(sc5ccc(C#N)nc54)c3=O)C[C@@H]21 [Example 108, dihydrochloride] | Kb | nM | 3.39 |
| COc1cccc2c1CC[C@H]1CN(CCn3c(=O)c4sc5nccnc5c4n(C(C)C)c3=O)C[C@@H]21 [Example 90, hydrochloride] | Kb | nM | 1.45 |
| COc1cccc2c1CC[C@@H]1CN(CCn3c(=O)[nH]c4c([nH]c5ccccc54)c3=O)C[C@@H]21 (relative stereo) [Example 17, hydrochloride] | Kb | nM | 10.7 |
| COc1ccc2sc3c(=O)n(CCN4C[C@@H]5CCc6c(OC)cccc6[C@@H]5C4)c(=O)[nH]c3c2n1 [Example 64, dihydrochloride] | Kb | nM | 0.794 |
| COc1cccc2c1[C@@H]1CN(CCn3c(=O)[nH]c4c(sc5ccccc54)c3=O)C[C@@H]1CC2 (relative stereo) [Example 5, hydrochloride] | Kb | nM | 13.8 |
| COCCOCCn1c(=O)n(CCN2C[C@@H]3CCc4c(OC)cccc4[C@@H]3C2)c(=O)c2sc3nccnc3c21 [Example 102, hydrochloride] | Kb | nM | 3.63 |
| COc1cccc2c1CC[C@H]1CN(CCn3c(=O)[nH]c4c([nH]c5ccccc54)c3=O)C[C@@H]21 (relative stereo) [Example 14, hydrochloride] | Kb | nM | 2.69 |
| COc1cccc2c1CC[C@H]1CN(CCn3c(=O)[nH]c4c(sc5ccccc54)c3=O)C[C@@H]21 [Example 9, hydrochloride] | Kb | nM | 1.95 |
| COc1cccc2c1CC[C@H]1CN(CCn3c(=O)[nH]c4c(oc5nccnc54)c3=O)C[C@@H]21 [Example 87, hydrochloride] | Kb | nM | 18.2 |
| COc1cccc2c1CC[C@H]1CN(CCn3c(=O)[nH]c4c([nH]c5ccccc54)c3=O)C[C@@H]21 [Example 26, hydrochloride] | Kb | nM | 2.75 |
| COc1cccc2c1CC[C@H]1CN(CCn3c(=O)[nH]c4c(sc5cccc(C)c54)c3=O)C[C@@H]21 [Example 69, hydrochloride] | Kb | nM | 2.51 |

###

# tested_target: α-1B adrenoceptor (rat spleen) (Rattus norvegicus, UniProt P15823)
# Construct: PE-induced contraction of rat spleen; from tissue; host or cells: rat spleen
# Sequence (P15823 whole entry): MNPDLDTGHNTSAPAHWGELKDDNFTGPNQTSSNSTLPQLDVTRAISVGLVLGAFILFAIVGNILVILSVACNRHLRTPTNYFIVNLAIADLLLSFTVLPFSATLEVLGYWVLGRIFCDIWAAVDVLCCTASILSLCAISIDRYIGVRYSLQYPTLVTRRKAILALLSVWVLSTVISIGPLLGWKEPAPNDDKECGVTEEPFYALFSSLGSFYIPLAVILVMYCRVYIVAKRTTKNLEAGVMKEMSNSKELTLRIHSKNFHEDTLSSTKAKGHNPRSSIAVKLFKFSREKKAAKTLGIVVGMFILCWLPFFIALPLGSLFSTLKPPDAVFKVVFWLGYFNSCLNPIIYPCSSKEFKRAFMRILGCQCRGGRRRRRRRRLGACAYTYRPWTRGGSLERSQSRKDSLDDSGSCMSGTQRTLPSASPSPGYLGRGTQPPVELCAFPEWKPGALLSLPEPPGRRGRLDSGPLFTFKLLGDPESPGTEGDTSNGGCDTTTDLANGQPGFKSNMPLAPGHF
# method: Functional antagonism: phenylephrine (PE)-induced contraction of rat spleen
# Format: cell-based
# experimental_conditions: vs phenylephrine; Schild plot; read-out: pA2 Rat Spleen [α-1B] (converted)
Structures can show the parent of a compound that is named as a salt.
Please enter YES where Kb is greater than or equal to 40 nM, and NO where it is lower.

| compound | tested_target | group |
| --- | --- | --- |
| COc1cccc2c1CC[C@H]1CN(CCn3c(=O)[nH]c4c(sc5ccccc54)c3=O)C[C@@H]21 [Example 9, hydrochloride] | α-1B adrenoceptor (rat spleen) (Rattus norvegicus, UniProt P15823) | NO |
| COc1cccc2c1CC[C@@H]1CN(CCn3c(=O)[nH]c4c(sc5ncccc54)c3=O)C[C@H]21 [Example 75, hydrochloride] | α-1B adrenoceptor (rat spleen) (Rattus norvegicus, UniProt P15823) | YES |
| COc1cccc2c1CC[C@H]1CN(CCn3c(=O)[nH]c4c(oc5nccnc54)c3=O)C[C@@H]21 [Example 87, hydrochloride] | α-1B adrenoceptor (rat spleen) (Rattus norvegicus, UniProt P15823) | YES |
| COc1cccc2c1CC[C@H]1CN(CCn3c(=O)[nH]c4c(sc5ccc(C(=O)N6CCOCC6)cc54)c3=O)C[C@@H]21 [Example 58, hydrochloride] | α-1B adrenoceptor (rat spleen) (Rattus norvegicus, UniProt P15823) | NO |
| COc1cccc2c1[C@@H]1CN(CCn3c(=O)[nH]c4c(sc5ccccc54)c3=O)C[C@@H]1CC2 [Example 16, hydrochloride] | α-1B adrenoceptor (rat spleen) (Rattus norvegicus, UniProt P15823) | YES |
| COc1cccc2c1CC[C@H]1CN(CCn3c(=O)[nH]c4c(oc5ncccc54)c3=O)C[C@@H]21 [Example 76, hydrochloride] | α-1B adrenoceptor (rat spleen) (Rattus norvegicus, UniProt P15823) | NO |

###

# tested_target: α-1A adrenoceptor (dog prostate) (Canis lupus, UniProt A0A8I3NK63)
# Sequence (A0A8I3NK63 1-466): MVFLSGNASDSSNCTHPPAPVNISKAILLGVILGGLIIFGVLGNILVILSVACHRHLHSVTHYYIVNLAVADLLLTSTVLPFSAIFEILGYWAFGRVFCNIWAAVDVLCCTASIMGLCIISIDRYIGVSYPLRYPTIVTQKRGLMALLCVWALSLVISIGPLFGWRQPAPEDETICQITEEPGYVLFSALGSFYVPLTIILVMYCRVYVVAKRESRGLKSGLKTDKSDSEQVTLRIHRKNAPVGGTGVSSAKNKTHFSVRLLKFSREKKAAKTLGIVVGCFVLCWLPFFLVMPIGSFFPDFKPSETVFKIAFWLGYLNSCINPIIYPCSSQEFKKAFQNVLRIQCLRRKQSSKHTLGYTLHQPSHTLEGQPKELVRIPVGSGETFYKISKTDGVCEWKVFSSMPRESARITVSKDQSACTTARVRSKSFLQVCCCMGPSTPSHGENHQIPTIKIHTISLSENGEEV
# method: Functional antagonism: phenylephrine (PE)-induced contraction of canine prostate strips
# Assay type: cell-based
# experimental_conditions: Table 2a; vs phenylephrine; Schild plot
Counter-ions that a name gives are not always drawn.
measured_parameter: pA2 Dog Prostate [α-1A]

| compound | measured_parameter | recorded_result |
| --- | --- | --- |
| COc1cccc2c1CC[C@H]1CN(CCn3c(=O)[nH]c4c(sc5nc(Cl)cnc54)c3=O)C[C@@H]21 [Example 88, hydrochloride] | pA2 Dog Prostate [α-1A] | 9.35 |
| COc1cccc2c1CC[C@H]1CN(CCn3c(=O)[nH]c4c(sc5cccc(C)c54)c3=O)C[C@@H]21 [Example 69, hydrochloride] | pA2 Dog Prostate [α-1A] | 8.25 |
| COc1cccc2c1CC[C@H]1CN(CCn3c(=O)c4sc5ccccc5c4n(C)c3=O)C[C@@H]21 (relative stereo) [Example 11, hydrochloride] | pA2 Dog Prostate [α-1A] | 8.57 |
| COc1cccc2c1CC[C@H]1CN(CCn3c(=O)[nH]c4c(sc5ccccc54)c3=O)C[C@@H]21 [Example 9, hydrochloride] | pA2 Dog Prostate [α-1A] | 8.63 |
| COc1cccc2c1CC[C@H]1CN(CCn3c(=O)[nH]c4c(sc5ccc(Cl)nc54)c3=O)C[C@@H]21 [Example 62, dihydrochloride] | pA2 Dog Prostate [α-1A] | 9.24 |
| COc1cccc2c1CC[C@H]1CN(CCn3c(=O)[nH]c4c(sc5ccc(O)nc54)c3=O)C[C@@H]21 [Example 107, dihydrochloride] | pA2 Dog Prostate [α-1A] | 9.22 |
| COc1cccc2c1CC[C@@H]1CN(CCn3c(=O)[nH]c4c(oc5ccccc54)c3=O)C[C@@H]21 (relative stereo) [Example 18, hydrochloride] | pA2 Dog Prostate [α-1A] | 8.37 |
| COc1cccc2c1CC[C@H]1CN(CCn3c(=O)[nH]c4c(sc5ccccc54)c3=O)C[C@@H]21 (relative stereo) [Example 1, hydrochloride] | pA2 Dog Prostate [α-1A] | 8.74 |

FYI, the data here is from patent US5597823A.
